# MEASURED_ON: glycine site of the NMDA receptor complex (Rattus norvegicus)
# Construct: thawed rat cerebral cortical membrane homogenate
# MEASUREMENT_DESCRIPTION: [3H]-glycine binding (Test 1)
# EXPERIMENTAL_SETUP: displacement of 50% of specific [3H]-glycine binding; rat cerebral cortical membrane homogenate, pH 7.1, 0° C., 10 min
PROPERTY_NAME: IC50

Report IC50 for each item below.
1. O=c1[nH]c2sc3c(Cl)cccc3c2[nH]c1=O
2. O=c1[nH]c2sc3c(Cl)cc(Cl)cc3c2[nH]c1=O

output:
180 nM
312 nM

Report IC50 for each item below.
1. COc1cccc2c1sc1[nH]c(=O)c(=O)[nH]c12
2. O=c1[nH]c2sc3ccc(C(F)(F)F)cc3c2[nH]c1=O
3. O=c1[nH]c2sc3ccc(Cl)cc3c2[nH]c1=O

output:
["10800 nM", "7000 nM", "56 nM"]

Ref: patent US5182279A
